# System: HeLa Kyoto
# Method Summary: thermal stability score vs G1/S (z-score of summed log2 fold changes over temperatures); higher = more thermally stable than in G1/S
# Condition Summary: cell cycle stage: mitosis
Please mark 1 if the recorded thermal stability score is equal to or greater than -2, and 0 if it falls below.

# Seq String, Assigned Label
data = [
    ("MAANKSKGQSSLALHKVIMVGSGGVGKSALTLQFMYDEFVEDYEPTKADSYRKKVVLDGEEVQIDILDTAGQEDYAAIRDNYFRSGEGFLLVFSITEHESFTATAEFREQILRVKAEEDKIPLLVVGNKSDLEERRQVPVEEARSKAEEWGVQYVETSAKTRANVDKVFFDLMREIRTKKMSENKDKNGKKSSKNKKSFKERCCLL [RALB]", 0),
    ("MAQESPKNSAAEIPVTSNGEVDDSREHSFNRDLKHSLPSGLGLSETQITSHGFDNTKEGVIEAGAFQGSPAPPLPSVMSPSRVAASRLAQQGSDLIVPAGGQRTQTKSGPVILADEIKNPAMEKLELVRKWSLNTYKCTRQIISEKLGRGSRTVDLELEAQIDILRDNKKKYENILKLAQTLSTQLFQMVHTQRQLGDAFADLSLKSLELHEEFGYNADTQKLLAKNGETLLGAINFFIASVNTLVNKTIEDTLMTVKQYESARIEYDAYRTDLEELNLGPRDANTLPKIEQSQHLFQAHKEKYDKMRNDVSVKLKFLEENKVKVLHNQLVLFHNAIAAYFAGNQKQLEQTLKQFHIKLKTPGVDAPSWLEEQ [ARFIP1]", 1),
    ("MEDEMPKTLYVGNLSRDVTEALILQLFSQIGPCKNCKMIMDTAGNDPYCFVEFHEHRHAAAALAAMNGRKIMGKEVKVNWATTPSSQKKDTSSSTVVSTQRSQDHFHVFVGDLSPEITTEDIKAAFAPFGRISDARVVKDMATGKSKGYGFVSFFNKWDAENAIQQMGGQWLGGRQIRTNWATRKPPAPKSTYESNTKQLSYDEVVNQSSPSNCTVYCGGVTSGLTEQLMRQTFSPFGQIMEIRVFPDKGYSFVRFNSHESAAHAIVSVNGTTIEGHVVKCYWGKETLDMINPVQQQNQIGYPQPYGQWGQWYGNAQQIGQYMPNGWQVPAYGMYGQAWNQQGFNQTQSSAPWMGPNYGVQPPQGQNGSMLPNQPSGYRVAGYETQ [TIA1]", 1),
]

---

Measured melting temperature of individual entries
# Tested on: HeLa Kyoto
# Method Summary: melting temperature (median over replicates), in situ; higher = more thermally stable
# Condition Summary: cell cycle stage: G1/S
Measurement Label: melting temperature (°C)

# Seq String, Measurement
data = [
    ("MAAPEPLRPRLCRLVRGEQGYGFHLHGEKGRRGQFIRRVEPGSPAEAAALRAGDRLVEVNGVNVEGETHHQVVQRIKAVEGQTRLLVVDQETDEELRRRQLTCTEEMAQRGLPPAHDPWEPKPDWAHTGSHSSEAGKKDVSGPLRELRPRLCHLRKGPQGYGFNLHSDKSRPGQYIRSVDPGSPAARSGLRAQDRLIEVNGQNVEGLRHAEVVASIKAREDEARLLVVDPETDEHFKRLRVTPTEEHVEGPLPSPVTNGTSPAQLNGGSACSSRSDLPGSDKDTEDGSAWKQDPFQESGLHLSPTAAEAKEKARAMRVNKRAPQMDWNRKREIFSNF [SLC9A3R2]", 53.6),
    ("MAEPLQPDPGAAEDAAAQAVETPGWKAPEDAGPQPGSYEIRHYGPAKWVSTSVESMDWDSAIQTGFTKLNSYIQGKNEKEMKIKMTAPVTSYVEPGSGPFSESTITISLYIPSEQQFDPPRPLESDVFIEDRAEMTVFVRSFDGFSSAQKNQEQLLTLASILREDGKVFDEKVYYTAGYNSPVKLLNRNNEVWLIQKNEPTKENE [HEBP2]", 53.1),
    ("MGGLFWRSALRGLRCGPRAPGPSLLVRHGSGGPSWTRERTLVAVKPDGVQRRLVGDVIQRFERRGFTLVGMKMLQAPESVLAEHYQDLRRKPFYPALIRYMSSGPVVAMVWEGYNVVRASRAMIGHTDSAEAAPGTIRGDFSVHISRNVIHASDSVEGAQREIQLWFQSSELVSWADGGQHSSIHPA [NME4]", 54.9),
    ("MALVASVRVPARVLLRAGARLPGAALGRTERAAGGGDGARRFGSQRVLVEPDAGAGVAVMKFKNPPVNSLSLEFLTELVISLEKLENDKSFRGVILTSDRPGVFSAGLDLTEMCGRSPAHYAGYWKAVQELWLRLYQSNLVLVSAINGACPAGGCLVALTCDYRILADNPRYCIGLNETQLGIIAPFWLKDTLENTIGHRAAERALQLGLLFPPAEALQVGIVDQVVPEEQVQSTALSAIAQWMAIPDHARQLTKAMMRKATASRLVTQRDADVQNFVSFISKDSIQKSLQMYLERLKEEKG [ECI1]", 56.8),
    ("MDGETAEEQGGPVPPPVAPGGPGLGGAPGGRREPKKYAVTDDYQLSKQVLGLGVNGKVLECFHRRTGQKCALKLLYDSPKARQEVDHHWQASGGPHIVCILDVYENMHHGKRCLLIIMECMEGGELFSRIQERGDQAFTEREAAEIMRDIGTAIQFLHSHNIAHRDVKPENLLYTSKEKDAVLKLTDFGFAKETTQNALQTPCYTPYYVAPEVLGPEKYDKSCDMWSLGVIMYILLCGFPPFYSNTGQAISPGMKRRIRLGQYGFPNPEWSEVSEDAKQLIRLLLKTDPTERLTITQFMNHPWINQSMVVPQTPLHTARVLQEDKDHWDEVKEEMTSALATMRVDYDQVKIKDLKTSNNRLLNKRRKKQAGSSSASQGCNNQ [MAPKAPK3]", 49.1),
    ("MDGDGDPESVGQPEEASPEEQPEEASAEEERPEDQQEEEAAAAAAYLDELPEPLLLRVLAALPAAELVQACRLVCLRWKELVDGAPLWLLKCQQEGLVPEGGVEEERDHWQQFYFLSKRRRNLLRNPCGEEDLEGWCDVEHGGDGWRVEELPGDSGVEFTHDESVKKYFASSFEWCRKAQVIDLQAEGYWEELLDTTQPAIVVKDWYSGRSDAGCLYELTVKLLSEHENVLAEFSSGQVAVPQDSDGGGWMEISHTFTDYGPGVRFVRFEHGGQDSVYWKGWFGARVTNSSVWVEP [FBXO2]", 51.9),
    ("MVEADRPGKLFIGGLNTETNEKALETVFGKYGRIVEVLLIKDRETNKSRGFAFVTFESPADAKDAARDMNGKSLDGKAIKVEQATKPSFERGRHGPPPPPRSRGPPRGFGAGRGGSGGTRGPPSRGGHMDDGGYSMNFNMSSSRGPLPVKRGPPPRSGGPSPKRSAPSGLVRSSSGMGGRAPLSRGRDSYGGPPRREPLPSRRDVYLSPRDDGYSTKDSYSSRDYPSSRDTRDYAPPPRDYTYRDYGHSSSRDDYPSRGYGDRDGYGRDRDYSDHPSGGSYRDSYESYGNSRSAPLTRGPPPSYGGSSRYDDYSSSRDGYGGSRDSYSSSRSDLYSSCDRVGRQERGLPPSVERGYPSSRDSYSSSSRGAPRGAGPGGSRSDRGGGRSRY [RBMXL1]", 46.5),
    ("MSRPLITRSPASPLNNQGIPTPAQLTKSNAPVHIDVGGHMYTSSLATLTKYPESRIGRLFDGTEPIVLDSLKQHYFIDRDGQMFRYILNFLRTSKLLIPDDFKDYTLLYEEAKYFQLQPMLLEMERWKQDRETGRFSRPCECLVVRVAPDLGERITLSGDKSLIEEVFPEIGDVMCNSVNAGWNHDSTHVIRFPLNGYCHLNSVQVLERLQQRGFEIVGSCGGGVDSSQFSEYVLRRELRRTPRVPSVIRIKQEPLD [KCTD1]", 58.7),
    ("MESSRGRPGPETDLLAVAEHQALVFGGGPGRTSSEPPAGLRVSGEEETENVGGANRHPRTSPKTSSCGVVHRPEREALENEPGPQGTLSGAGSRRGAPGAEHEPSLSSRHKNPAPPEGKPSSGRDCRRGGPGGGMDVEQQEEEDNDEEAAAGSRAGRSFSSRLQDSRSLDGLSEACGGAGSSGSAESGAGGGRRATISSPLELEGTVSRHGDLTHFVANNLQLKIRLSGAPPPPPSAPARPCPAPAPTPTPAIPPIDPEVLRDLERLSRELGGRVDRLLRGLGGAVQELTALSVGCIQTYRDAVDSLGEAVDMSIKGMYTLLARCEELERALQPVQGLARQVRDIRRTLEVLEALCK [C17ORF59]", 53.5),
    ("MAKQKRKVPEVTEKKNKKLKKASAEGPLLGPEAAPSGEGAGSKGEAVLRPGLDAEPELSPEEQRVLERKLKKERKKEERQRLREAGLVAQHPPARRSGAELALDYLCRWAQKHKNWRFQKTRQTWLLLHMYDSDKVPDEHFSTLLAYLEGLQGRARELTVQKAEALMRELDEEGSDPPLPGRAQRIRQVLQLLS [C7ORF50]", 50),
]
